Source listed as patent US20150307520A1.

molecular target: p110γ (Homo sapiens, UniProt P48736); test: Transcreener KINASE Assay, kinase inhibition of p110γ; type: biochemical; details: 1 uM test compound
Sequence (P48736 whole entry): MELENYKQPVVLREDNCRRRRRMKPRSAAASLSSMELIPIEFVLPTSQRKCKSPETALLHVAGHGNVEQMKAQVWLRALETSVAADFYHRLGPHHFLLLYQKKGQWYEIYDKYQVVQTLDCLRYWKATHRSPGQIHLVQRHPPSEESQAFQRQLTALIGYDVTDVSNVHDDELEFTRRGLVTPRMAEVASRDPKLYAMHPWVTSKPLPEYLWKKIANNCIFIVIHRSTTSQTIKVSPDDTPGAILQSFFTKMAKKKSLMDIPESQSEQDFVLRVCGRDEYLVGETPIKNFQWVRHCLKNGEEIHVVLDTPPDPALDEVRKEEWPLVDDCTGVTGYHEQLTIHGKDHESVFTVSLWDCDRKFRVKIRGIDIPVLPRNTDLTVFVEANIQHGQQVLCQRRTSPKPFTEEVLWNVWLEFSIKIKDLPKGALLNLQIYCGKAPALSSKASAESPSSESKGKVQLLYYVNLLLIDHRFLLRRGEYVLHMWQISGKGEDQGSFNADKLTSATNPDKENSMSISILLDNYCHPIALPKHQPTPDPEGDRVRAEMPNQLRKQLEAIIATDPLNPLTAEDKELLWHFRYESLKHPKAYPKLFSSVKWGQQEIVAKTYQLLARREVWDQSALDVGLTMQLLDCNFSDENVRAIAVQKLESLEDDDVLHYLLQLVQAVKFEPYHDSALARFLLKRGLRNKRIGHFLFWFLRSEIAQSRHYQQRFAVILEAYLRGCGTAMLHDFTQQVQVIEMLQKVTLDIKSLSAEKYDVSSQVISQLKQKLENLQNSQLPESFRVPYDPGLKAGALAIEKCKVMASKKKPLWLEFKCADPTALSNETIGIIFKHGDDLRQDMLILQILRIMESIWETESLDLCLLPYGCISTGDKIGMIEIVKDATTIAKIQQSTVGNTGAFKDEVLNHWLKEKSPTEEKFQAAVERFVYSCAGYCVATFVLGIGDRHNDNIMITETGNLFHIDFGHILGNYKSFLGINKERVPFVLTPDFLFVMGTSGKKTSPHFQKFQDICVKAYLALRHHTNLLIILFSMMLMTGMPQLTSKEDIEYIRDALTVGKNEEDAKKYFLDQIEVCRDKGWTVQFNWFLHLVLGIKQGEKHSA
observation_type: PI3Kγ IH % @ 1 uM (%)

* Nc1ncc(Cl)c(N2CC[C@H]2c2nn3ccc(Cl)c3c(=O)n2-c2ccccc2)n1 | 71.6
* N#Cc1c(N)ncnc1N1CCC[C@H]1c1nn2ccc(Cl)c2c(=O)n1Cc1ccccn1 | 68.8
* O=c1c2c(Cl)ccn2nc([C@@H]2CCCN2c2nc(F)nc3[nH]cnc23)n1-c1ccccc1 | 97.3

====

biological target: p110δ/p85α (Homo sapiens); assay: Transcreener KINASE Assay, kinase inhibition of p110δ/p85α; format: biochemical; conditions: 1 uM test compound
observation_type: PI3Kδ IH % @ 1 uM (%)

The cases that follow already have their PI3Kδ IH % @ 1 uM on record.
• Nc1ncc(C(=O)C2CC2)c(N2CC[C@H]2c2nn3ccc(Cl)c3c(=O)n2-c2ccccc2)n1 = 7.1
• O=c1c2c(Cl)ccn2nc([C@@H]2CCCN2c2ncnc3[nH]cnc23)n1-c1ccc(F)cc1 = 91.7
• N#Cc1c[nH]c2ncnc(N3CCC[C@H]3c3nn4ccc(Cl)c4c(=O)n3-c3ccccn3)c12 = 99.2
• N#Cc1c[nH]c2ncnc(N3C[C@H](F)C[C@H]3c3nn4ccc(Cl)c4c(=O)n3-c3ccccc3)c12 = 98.4
• CS(=O)(=O)c1c[nH]c2ncnc(N3CC[C@H]3c3nn4ccc(Cl)c4c(=O)n3-c3ccccc3)c12 = 88.8

P. NC(=O)c1c[nH]c2ncnc(N3CC[C@H]3c3nn4ccc(Cl)c4c(=O)n3-c3ccccc3)c12
Q. Cc1ccn2nc([C@@H]3CCCN3c3ncnc(N)c3C#N)n(-c3ccccc3)c(=O)c12
Identify the entry with the smaller PI3Kδ IH % @ 1 uM: P or Q . Answer format: the label of the selected item.
P

====

target: p110δ/p85α (Homo sapiens, UniProt O00329); test: Transcreener KINASE Assay, kinase inhibition of p110δ/p85α; conditions: read-out: PI3Kδ IC50
Sequence (O00329 whole entry): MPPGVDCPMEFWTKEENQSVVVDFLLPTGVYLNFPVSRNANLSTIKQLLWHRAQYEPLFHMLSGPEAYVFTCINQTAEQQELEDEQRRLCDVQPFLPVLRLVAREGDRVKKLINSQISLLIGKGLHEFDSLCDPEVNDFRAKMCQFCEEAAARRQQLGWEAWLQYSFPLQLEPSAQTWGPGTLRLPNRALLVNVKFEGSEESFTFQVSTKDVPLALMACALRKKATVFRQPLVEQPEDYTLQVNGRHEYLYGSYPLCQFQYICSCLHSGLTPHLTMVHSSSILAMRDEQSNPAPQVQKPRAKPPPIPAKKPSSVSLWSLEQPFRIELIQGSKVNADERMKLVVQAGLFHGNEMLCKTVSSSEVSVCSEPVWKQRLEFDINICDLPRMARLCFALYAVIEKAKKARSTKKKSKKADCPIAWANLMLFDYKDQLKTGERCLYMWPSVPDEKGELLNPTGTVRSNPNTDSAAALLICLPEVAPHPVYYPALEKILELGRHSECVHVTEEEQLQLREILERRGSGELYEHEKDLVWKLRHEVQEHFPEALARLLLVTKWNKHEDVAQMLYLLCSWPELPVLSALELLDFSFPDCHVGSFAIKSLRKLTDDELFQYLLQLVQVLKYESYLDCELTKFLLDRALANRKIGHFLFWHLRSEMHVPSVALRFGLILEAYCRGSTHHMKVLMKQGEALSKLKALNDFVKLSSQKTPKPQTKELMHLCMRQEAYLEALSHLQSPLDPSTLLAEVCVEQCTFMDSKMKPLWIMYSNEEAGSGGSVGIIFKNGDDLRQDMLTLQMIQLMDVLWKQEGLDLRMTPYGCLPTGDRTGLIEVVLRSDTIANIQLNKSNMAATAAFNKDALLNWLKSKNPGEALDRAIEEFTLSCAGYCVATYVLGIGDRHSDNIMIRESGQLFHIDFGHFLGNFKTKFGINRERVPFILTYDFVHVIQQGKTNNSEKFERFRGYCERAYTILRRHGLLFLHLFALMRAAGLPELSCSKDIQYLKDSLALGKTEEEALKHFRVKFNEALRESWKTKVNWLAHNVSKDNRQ
Sequence (P27986 whole entry partner): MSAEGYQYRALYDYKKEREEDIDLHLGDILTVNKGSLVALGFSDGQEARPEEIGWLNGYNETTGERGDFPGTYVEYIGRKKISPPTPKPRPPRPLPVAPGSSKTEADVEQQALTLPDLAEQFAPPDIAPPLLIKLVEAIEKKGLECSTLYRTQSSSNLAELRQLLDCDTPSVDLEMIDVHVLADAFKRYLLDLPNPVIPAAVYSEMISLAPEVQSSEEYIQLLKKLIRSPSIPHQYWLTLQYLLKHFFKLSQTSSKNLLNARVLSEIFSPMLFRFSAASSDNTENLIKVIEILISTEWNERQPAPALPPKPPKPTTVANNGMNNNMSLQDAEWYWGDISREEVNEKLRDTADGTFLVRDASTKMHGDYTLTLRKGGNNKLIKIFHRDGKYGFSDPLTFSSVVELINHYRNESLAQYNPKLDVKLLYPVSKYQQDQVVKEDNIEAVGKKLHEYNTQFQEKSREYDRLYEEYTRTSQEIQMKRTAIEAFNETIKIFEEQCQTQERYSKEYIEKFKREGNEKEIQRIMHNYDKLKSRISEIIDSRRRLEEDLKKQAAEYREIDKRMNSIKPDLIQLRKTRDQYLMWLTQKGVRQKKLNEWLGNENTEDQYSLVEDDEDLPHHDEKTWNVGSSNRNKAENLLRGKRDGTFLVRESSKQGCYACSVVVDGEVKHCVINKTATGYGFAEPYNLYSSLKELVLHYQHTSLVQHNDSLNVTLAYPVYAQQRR
pIC50: −log10 of the molar value.
observation_type: pIC50

- COc1ccc(-c2n[nH]c3ncnc(N4CC[C@H]4c4nn5ccc(Cl)c5c(=O)n4-c4ccccc4)c23)cn1 [Compound 170]: 8.30
- CC(Nc1ncnc2[nH]cc(S(C)(=O)=O)c12)c1cc2ncc(Cl)n2c(=O)n1-c1ccccc1 (stereo not drawn) [Compound 286]: 7.54
- Nc1nc2c(c(N3C[C@@H](F)C[C@H]3c3nn4ccc(F)c4c(=O)n3-c3ccccc3)n1)C(=O)CCN2 [Compound 250]: 7.66

P. N#Cc1c[nH]c2ncnc(N3C[C@@H](F)C[C@H]3c3nn4ccc(F)c4c(=O)n3-c3ccccc3)c12 [Compound 225]
Q. C[S@+]([O-])c1c[nH]c2ncnc(N3CCC[C@H]3c3nn4ccc(F)c4c(=O)n3-c3ccccc3)c12 [Compound 396]
R. CC(=O)c1cnc(N)nc1N1CC(C)(C)C1c1nn2ccc(Cl)c2c(=O)n1-c1ccccc1 (stereo in doubt) [Compound 484]
Which order do these items take when sorted by rising pIC50? List them. Please express your ranking as an ordered list of the labels.
Q, P, R
(Q: 8.70, P: 9.00, R: 10.00)

a. CC(=O)c1cnc(N)nc1N1CC[C@H]1c1nn2ccc(C#N)c2c(=O)n1-c1ccccc1 [Compound 498]
b. Nc1ncc(C(F)(F)F)c(N2CCC[C@H]2c2nn3ccc(CO)c3c(=O)n2-c2ccccc2)n1 [Compound 178]
c. CC(=O)c1c[nH]c2ncnc(N3CCC[C@H]3c3nn4ccc(F)c4c(=O)n3-c3ccccc3)c12 [Compound 218]
Sequence the entries by pIC50, beginning with the highest number. Please express your ranking as an ordered list of the labels.
c, a, b
(c: 8.70, a: 7.68, b: 6.68)

A. CC1(C)CN(c2nc(N)ncc2Cl)C1c1nn2ccc(Cl)c2c(=O)n1-c1ccccc1 (stereo not drawn) [Compound 466]
B. C[S@+]([O-])c1c[nH]c2ncnc(N3CCC[C@H]3c3nn4ccc(Cl)c4c(=O)n3-c3ccccc3)c12 [Compound 382]
C. CC(=O)c1cnc(N)nc1N1C[C@H](C)[C@H]1c1nn2ccc(C#N)c2c(=O)n1-c1ccccc1 [Compound 500]
Which order do these items take when sorted by rising pIC50? List them. Please express your ranking as an ordered list of the labels.
A, C, B

1. CC(C)Cn1c([C@@H]2CCN2c2ncnc3[nH]cc(C#N)c23)nn2ccc(Cl)c2c1=O [Compound 259]
2. Nc1nc2c(c(N3CC[C@H]3c3nn4ccc(Cl)c4c(=O)n3-c3ccccn3)n1)C(=O)CCN2 [Compound 379]
Identify the entry with the smaller pIC50: 1 or 2 . Answer format: the label of the selected item.
2
